Source listed as ChEMBL document CHEMBL2321804.

# ASSAY_NOTES: Cytotoxicity against mouse L5178Y cells expressing p-gp assessed as cell viability at 10 uM after 24 hrs by MTT assay
# Assay type: ADME, cell-based
# CONDITION_SET: read-out: Activity
OBSERVABLE: viability at 24 h, 10 µM

- COMPOUND: "CCOC(=O)C1=CN(Cc2ccc(OC)cc2)C=CC1c1ccccc1 (configuration not stated)"
  viability at 24 h, 10 µM: "85%"

Enquiry: Which value of viability at 24 h, 10 µM has been reported for COC(=O)C1=CN(Cc2ccc(C)cc2)C=CC1c1ccccc1 (configuration not stated) in the records?
Return: 75%

* * *

# ASSAY_NOTES: Cytotoxicity against mouse L5178Y cells expressing p-gp assessed as cell viability at 2.5 uM after 24 hrs by MTT assay
# Format: ADME, cell-based
# CONDITION_SET: read-out: Activity
OBSERVABLE: viability at 24 h, 2.5 µM

Enquiry: Which value of viability at 24 h, 2.5 µM has been reported for COC(=O)C1=CN(Cc2ccc(C)cc2)C=CC1c1ccccc1 (stereo unspecified) in the records?
Return: 81%
